# Assay text: Bulk specific gravity (packed state)
# Assay type: physicochemical
The reader will find reported Bulk Specific Gravity values listed item by item below.

[
  {
    "Compound": "Cc1cc(CCC(=O)OCC(C)(C)C2OCC3(CO2)COC(C(C)(C)COC(=O)CCc2cc(C)c(O)c(C(C)(C)C)c2)OC3)cc(C(C)(C)C)c1O (centres unmarked) [Comparative Example 2, reference compound]",
    "Bulk Specific Gravity": 0.40
  },
  {
    "Compound": "Cc1cc(CCC(=O)OCC(C)(C)C2OCC3(CO2)COC(C(C)(C)COC(=O)CCc2cc(C)c(O)c(C(C)(C)C)c2)OC3)cc(C(C)(C)C)c1O (centres unmarked) [Example 1]",
    "Bulk Specific Gravity": 0.59
  },
  {
    "Compound": "Cc1cc(CCC(=O)OCC(C)(C)C2OCC3(CO2)COC(C(C)(C)COC(=O)CCc2cc(C)c(O)c(C(C)(C)C)c2)OC3)cc(C(C)(C)C)c1O (centres unmarked) [Example 2]",
    "Bulk Specific Gravity": 0.60
  },
  {
    "Compound": "Cc1cc(CCC(=O)OCC(C)(C)C2OCC3(CO2)COC(C(C)(C)COC(=O)CCc2cc(C)c(O)c(C(C)(C)C)c2)OC3)cc(C(C)(C)C)c1O (centres unmarked) [Example 3]",
    "Bulk Specific Gravity": 0.66
  },
  {
    "Compound": "Cc1cc(CCC(=O)OCC(C)(C)C2OCC3(CO2)COC(C(C)(C)COC(=O)CCc2cc(C)c(O)c(C(C)(C)C)c2)OC3)cc(C(C)(C)C)c1O (centres unmarked) [Comparative Example 1, reference compound]",
    "Bulk Specific Gravity": 0.43
  }
]
